Origin of measurements: patent US20170152239A1

- Subject of test: WT EZH2 (EZH2 4 protein complex: EZH2, EED, SUZ12, RbAp48) (Homo sapiens, UniProt O75530+Q09028+Q15022+Q15910)
- Sequence (Q15910 whole entry): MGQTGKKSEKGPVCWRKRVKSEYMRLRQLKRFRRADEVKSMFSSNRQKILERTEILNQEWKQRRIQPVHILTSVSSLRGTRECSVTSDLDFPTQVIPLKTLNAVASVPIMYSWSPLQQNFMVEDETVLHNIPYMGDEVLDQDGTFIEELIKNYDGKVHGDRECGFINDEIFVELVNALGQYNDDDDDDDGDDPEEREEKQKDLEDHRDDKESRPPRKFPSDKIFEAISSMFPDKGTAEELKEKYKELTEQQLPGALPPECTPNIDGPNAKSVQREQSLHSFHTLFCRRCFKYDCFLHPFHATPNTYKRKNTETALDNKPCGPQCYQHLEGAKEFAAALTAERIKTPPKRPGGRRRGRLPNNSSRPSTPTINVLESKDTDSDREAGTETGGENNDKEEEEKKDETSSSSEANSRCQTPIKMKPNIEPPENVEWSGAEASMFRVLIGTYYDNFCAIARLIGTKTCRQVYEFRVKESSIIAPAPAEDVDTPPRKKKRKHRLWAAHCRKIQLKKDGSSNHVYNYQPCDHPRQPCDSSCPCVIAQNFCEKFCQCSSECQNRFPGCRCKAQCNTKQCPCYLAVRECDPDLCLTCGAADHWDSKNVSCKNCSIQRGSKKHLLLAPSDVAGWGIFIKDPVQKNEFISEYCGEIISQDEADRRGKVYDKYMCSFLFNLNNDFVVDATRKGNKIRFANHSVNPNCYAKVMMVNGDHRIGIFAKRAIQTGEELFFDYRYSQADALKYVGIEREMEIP
- Sequence (O75530 whole entry partner): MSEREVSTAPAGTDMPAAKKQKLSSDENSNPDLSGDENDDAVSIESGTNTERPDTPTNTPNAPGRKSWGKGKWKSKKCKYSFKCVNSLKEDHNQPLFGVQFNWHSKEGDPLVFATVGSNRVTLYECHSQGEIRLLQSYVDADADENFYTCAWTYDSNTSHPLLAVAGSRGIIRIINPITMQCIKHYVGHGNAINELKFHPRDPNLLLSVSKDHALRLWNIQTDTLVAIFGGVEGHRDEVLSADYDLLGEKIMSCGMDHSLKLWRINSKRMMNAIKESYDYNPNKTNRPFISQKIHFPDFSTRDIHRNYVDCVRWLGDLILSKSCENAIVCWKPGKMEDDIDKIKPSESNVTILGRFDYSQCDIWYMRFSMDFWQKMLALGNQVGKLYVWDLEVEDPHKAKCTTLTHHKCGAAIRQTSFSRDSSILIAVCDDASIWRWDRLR
- Sequence (Q15022 whole entry partner): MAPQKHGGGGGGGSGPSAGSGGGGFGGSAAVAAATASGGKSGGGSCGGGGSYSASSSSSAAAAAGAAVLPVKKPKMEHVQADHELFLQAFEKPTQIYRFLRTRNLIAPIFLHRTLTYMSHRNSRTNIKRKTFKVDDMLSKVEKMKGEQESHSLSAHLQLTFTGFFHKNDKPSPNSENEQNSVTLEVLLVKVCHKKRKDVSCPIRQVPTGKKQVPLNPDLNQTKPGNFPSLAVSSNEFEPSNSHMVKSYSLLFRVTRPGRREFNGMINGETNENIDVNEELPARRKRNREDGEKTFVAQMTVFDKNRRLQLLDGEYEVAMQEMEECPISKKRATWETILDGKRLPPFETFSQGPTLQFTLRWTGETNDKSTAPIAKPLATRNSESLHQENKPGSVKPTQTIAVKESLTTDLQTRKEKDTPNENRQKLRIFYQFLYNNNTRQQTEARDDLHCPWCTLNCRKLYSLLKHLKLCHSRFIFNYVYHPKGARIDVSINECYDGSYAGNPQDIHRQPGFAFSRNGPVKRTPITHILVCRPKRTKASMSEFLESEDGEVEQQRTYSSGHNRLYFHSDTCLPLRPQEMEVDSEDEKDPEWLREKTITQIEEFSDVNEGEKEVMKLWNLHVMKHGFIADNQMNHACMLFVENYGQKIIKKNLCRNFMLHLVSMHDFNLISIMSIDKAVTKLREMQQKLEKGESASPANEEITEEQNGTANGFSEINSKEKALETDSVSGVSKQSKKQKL
- Sequence (Q09028 whole entry partner): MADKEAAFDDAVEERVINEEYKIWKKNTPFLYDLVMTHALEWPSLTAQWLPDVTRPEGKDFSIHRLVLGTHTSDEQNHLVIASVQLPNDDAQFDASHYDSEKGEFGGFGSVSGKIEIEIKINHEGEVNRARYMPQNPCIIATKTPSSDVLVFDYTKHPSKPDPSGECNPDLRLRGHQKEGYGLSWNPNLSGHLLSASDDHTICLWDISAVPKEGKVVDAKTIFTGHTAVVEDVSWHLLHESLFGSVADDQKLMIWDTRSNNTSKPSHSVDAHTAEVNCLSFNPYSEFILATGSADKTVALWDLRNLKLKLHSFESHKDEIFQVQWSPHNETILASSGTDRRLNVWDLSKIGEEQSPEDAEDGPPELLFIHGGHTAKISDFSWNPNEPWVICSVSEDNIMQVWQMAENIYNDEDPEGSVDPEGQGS
- Assay overview: WT EZH2 nucleosome assay
- Type: biochemical
- Settings: nucleosome assay, 5 nM EZH2 4-protein complex, 1.5 μM SAM; read-out: WT EZH2 IC50
Quantity measured: IC50 (nM)

Consider the worked cases shown below.
Cc1cc(C)c(CNC(=O)c2nc(Cl)nc(N3CCN(C)C[C@@H]3C)c2C)c(=O)[nH]1 | 2080
COCc1cc(C)[nH]c(=O)c1CNC(=O)c1cc(Cl)cc(-c2ccnn2C)c1C | 2050
Cc1cc(C)c(CNC(=O)c2cccc(OC(C)C)c2Cl)c(=O)[nH]1 | 1630
Cc1cc(C)c(CNC(=O)c2nccc(OC(C)C)c2C)c(=O)[nH]1 | 7790
Cc1cc(C)c(CNC(=O)c2nc(O[C@@H]3CCOC3)nc(-c3ccnn3C)c2C)c(=O)[nH]1 | 14500
Cc1cc(C)c(CNC(=O)c2ccnc(OC(C)C)c2C)c(=O)[nH]1 | 9760
Cc1cc(C)c(CNC(=O)c2nc(N3C[C@@H]4[C@@H](N)[C@@H]4C3)nc(-c3ccnn3C)c2C)c(=O)[nH]1 | 3180
Cc1cc(C)c(CNC(=O)c2nc(-c3ccc(N)nc3)nc(-c3ccnn3C)c2C)c(=O)[nH]1 | 940

I = Cc1cc(C)c(CNC(=O)c2cc(Cl)cc(-c3ccnn3C)c2C)c(=O)[nH]1
II = Cc1cc(C)c(CNC(=O)c2cc(Cl)cc(-n3ccnc3C)c2C)c(=O)[nH]1
Qu. Which value of IC50 is greater, the one for I or the one for II ? State your choice using its label.
Ans. II

I = Cc1cc(C)c(CNC(=O)c2cccc(OC(C)C)c2C)c(=O)[nH]1
II = Cc1cc(C)c(CNC(=O)c2ccnc(N3CCC[C@@H]3C)c2Cl)c(=O)[nH]1
III = Cc1cc(C)c(CNC(=O)c2nc(N3[C@@H]4CC[C@H]3COC4)nc(N3CCC[C@@H]3C)c2C)c(=O)[nH]1
IV = Cc1cc(C)c(CNC(=O)c2cc(-c3cnc(N4CC(F)C4)nc3)cc(-c3c(C)cnn3C)c2C)c(=O)[nH]1
Qu. Returns the items ordered by IC50, from maximum to minimum. Provide the labels, sequenced as the question asks.
Ans. II, III, I, IV

1 = Cc1cc(C)c(CNC(=O)c2cc(-c3cnn(C)c3)cc(-c3ccnn3C)c2C)c(=O)[nH]1
2 = Cc1cc(C)c(CNC(=O)c2nc(OC(C)C)nc(-c3ccnn3C)c2C)c(=O)[nH]1
Qu. Which value of IC50 is greater, the one for 1 or the one for 2 ? State your choice using its label.
Ans. 2
(2: 17600 nM, 1: 140 nM)

###

- Subject of test: WT EZH2 (EZH2 4 protein complex: EZH2, EED, SUZ12, RbAp48) (Homo sapiens, UniProt O75530+Q09028+Q15022+Q15910)
- Assay overview: WT EZH2 nucleosome assay
- Type: biochemical
- Settings: nucleosome assay, 5 nM EZH2 4-protein complex, 1.5 μM SAM; read-out: WT EZH2 IC50
- Description: Nucleosome Assay Protocol: A. Compound preparation • 1. Prepare 10 mM stock solutions in 100% DMSO from solid material • 2. Serial dilute 10 mM compound stocks either 2 or 3-fold in 100% DMSO to generate compounds for 11 point dose response B. Reagent preparation • 1. Prepare 1× assay buffer containing 100 mM Tris pH 8.5, 4 mM DTT and 0.01% Tween-20 • 2. […] D. Data analysis • 1. IC50 values were determined by fitting the data to a 4-parameter IC50 equation using proprietary curve fitting software. […]
Quantity measured: IC50 (µM)

Cc1cc(C)c(CNC(=O)c2ccnc(N3[C@H](C)CC[C@@H]3C)c2Cl)c(=O)[nH]1 | 16.9

1 = Cc1cc(C)c(CNC(=O)c2cc(-c3cnc(N(C)C)nc3)cc(-c3ccnn3C)c2C)c(=O)[nH]1
2 = CNc1ncc(-c2nc(C(=O)NCc3c(C)cc(C)[nH]c3=O)c(C)c(-c3ccnn3C)n2)cn1
3 = Cc1cc(C)c(CNC(=O)c2ncnc(N3CC[C@H](C)C3)c2C)c(=O)[nH]1
4 = CCn1ncc(C)c1-c1cccc(C(=O)NCc2c(C)cc(C)[nH]c2=O)c1C
Qu. Returns the items ordered by IC50, from maximum to minimum. Provide the labels, sequenced as the question asks.
Ans. 3, 2, 4, 1
(3: 21.8 µM, 2: 1.7 µM, 4: 0.11 µM, 1: 0.038 µM)

###

- Subject of test: WT EZH2 (EZH2 4 protein complex: EZH2, EED, SUZ12, RbAp48) (Homo sapiens, UniProt O75530+Q09028+Q15022+Q15910)
- Assay overview: WT EZH2 nucleosome assay
- Assay type: biochemical
- Settings: nucleosome assay, 5 nM EZH2 4-protein complex, 1.5 μM SAM; read-out: WT EZH2 IC50
pIC50: −log10 of the molar value.
Quantity measured: pIC50

COc1cccc(C(=O)NCc2c(C)cc(C)[nH]c2=O)c1Br [Example 66] | 5.31
CCCc1cc(C)[nH]c(=O)c1CNC(=O)c1nc(C2CC2)nc(-c2ccnn2C)c1C [Example 118] | 4.50

a = Cc1cc(C)c(CNC(=O)c2cc(F)cc(-c3c(C)cnn3C)c2C)c(=O)[nH]1 [Example 38]
b = COC[C@H]1CCCN1c1ncnc(C(=O)NCc2c(C)cc(C)[nH]c2=O)c1C [Example 131]
c = Cc1cc(C)c(CNC(=O)c2nc(N3CCC(N)CC3)nc(-c3ccnn3C)c2C)c(=O)[nH]1 [Example 43]
Qu. Returns the items ordered by pIC50, from maximum to minimum. Provide the labels, sequenced as the question asks.
Ans. a, c, b
(a: 6.15, c: 5.87, b: 4.11)

P = Cc1cc(C)c(CNC(=O)c2cc(-c3cncnc3)cc(-c3ccnn3C)c2C)c(=O)[nH]1 [Example 17]
Q = Cc1cc(C)c(CNC(=O)c2ncnc(N3C4CCC3CC4)c2C)c(=O)[nH]1 [Example 83]
Qu. Which value of pIC50 is greater, the one for P or the one for Q ? State your choice using its label.
Ans. P

###

- Subject of test: WT EZH2 (EZH2 4 protein complex: EZH2, EED, SUZ12, RbAp48) (Homo sapiens, UniProt O75530+Q09028+Q15022+Q15910)
- Assay overview: WT EZH2 nucleosome assay
- Type: biochemical
- Settings: nucleosome assay, 5 nM EZH2 4-protein complex, 1.5 μM SAM; read-out: WT EZH2 IC50
Quantity measured: IC50 (µM)

Consider the worked cases shown below.
COc1cccc(C(=O)NCc2c(C)cc(C)[nH]c2=O)c1C [Example 60] | 3.98
Cc1cc(C)c(CNC(=O)c2ccnc(N3CCC[C@H]3C)c2Cl)c(=O)[nH]1 [Example 106] | 19.8
CCOc1nc(C(=O)NCc2c(C)cc(C)[nH]c2=O)c(C)c(-c2ccnn2C)n1 [Example 102] | 18.6
Cc1cc(C)c(CNC(=O)c2nc(OCCN3CC[C@@H](F)C3)nc(-c3ccnn3C)c2C)c(=O)[nH]1 [Example 103] | 19.1
Cc1cc(C)c(CNC(=O)c2ncnc(N3CCCC3)c2C)c(=O)[nH]1 [Example 125] | 50.7

A = Cc1cc(C)c(CNC(=O)c2nc(OCCN3CCC(F)(F)C3)nc(-c3ccnn3C)c2C)c(=O)[nH]1 [Example 105]
B = Cc1cc(-c2cc(Cl)cc(C(=O)NCc3c(C)cc(C)[nH]c3=O)c2C)n(C)n1 [Example 77]
C = Cc1cc(C)c(CNC(=O)c2cccc(OC(C)C)c2F)c(=O)[nH]1 [Example 130]
D = CCCc1cc(C)[nH]c(=O)c1CNC(=O)c1cc(-c2cnn(C)c2)cc(OC(C)C)c1Cl [Example 27]
Qu. List by increasing IC50. Provide the labels, sequenced as the question asks.
Ans. D, B, A, C

###

- Subject of test: WT EZH2 (EZH2 4 protein complex: EZH2, EED, SUZ12, RbAp48) (Homo sapiens, UniProt O75530+Q09028+Q15022+Q15910)
- Assay overview: WT EZH2 nucleosome assay
- Type: biochemical
- Settings: nucleosome assay, 5 nM EZH2 4-protein complex, 1.5 μM SAM; read-out: WT EZH2 IC50
Quantity measured: IC50 (nM)

Consider the worked cases shown below.
Cc1cc(C)c(CNC(=O)c2cc(C#N)cc(-c3c(C)cnn3C)c2C)c(=O)[nH]1 | 540
Cc1cc(C)c(CNC(=O)c2nc(OCCN3CC[C@H](F)C3)nc(-c3ccnn3C)c2C)c(=O)[nH]1 | 18400
Cc1cc(C)c(CNC(=O)c2nc(OCCO)nc(-c3ccnn3C)c2C)c(=O)[nH]1 | 12000
Cc1cc(C)c(CNC(=O)c2cccc(-c3c(C)ncn3C)c2C)c(=O)[nH]1 | 230

I = Cc1cc(C)c(CNC(=O)c2cccc(-c3c(F)cnn3C)c2C)c(=O)[nH]1
II = Cc1cc(C)c(CNC(=O)c2nc(N3CCCC3)nc(N3CCC[C@@H]3C)c2C)c(=O)[nH]1
Qu. Which value of IC50 is greater, the one for I or the one for II ? State your choice using its label.
Ans. II
(II: 9820 nM, I: 360 nM)

A = Cc1cc(C)c(CNC(=O)c2cc(-c3ccc(N)nc3)cc(-c3ccnn3C)c2C)c(=O)[nH]1
B = Cc1cc(C)c(CNC(=O)c2cccc(-c3c(C)nn(C)c3C)c2C)c(=O)[nH]1
Qu. Which value of IC50 is greater, the one for A or the one for B ? State your choice using its label.
Ans. B
